Entries annotated with measured Counts/minute bound
target-desc: T1, recombinant human IL-6 (human, UniProt P05231 30-212, labeled with radioactive iodine)
T1 construct: Labeled probe in solution, added to wells that carry the synthetic peptides; also called IL-6 ligand; Interleukin-6
test-protocol: radioiodinated IL-6 on peptide array
A complete answer gives the number followed by the unit.

Check out these entries, answers already filled in.
>  <binder>
SSFYRLRFELRYRAERAKTFT (alanine-scan variant of the domain III 21-mer) [Peptide C38]

>  <Counts/minute bound>
12300 counts/minute

$$$$
>  <binder>
LRFELRYRAERSKTFT [Peptide C22]

>  <Counts/minute bound>
9610 counts/minute

$$$$
>  <binder>
PSLTTKAVLLVRKFQNS [Peptide B21]

>  <Counts/minute bound>
13300 counts/minute

$$$$
>  <binder>
RLLLRSV (also called RLLLRSV) [Peptide A31]

>  <Counts/minute bound>
5460 counts/minute

$$$$
>  <binder>
AAGSHPSRWAGAGRRLLLRSV (alanine-scan variant of the domain I 21-mer) [Peptide A43]

>  <Counts/minute bound>
13500 counts/minute

$$$$

Lab note: next binder to report on.
Report measured Counts/minute bound; entry is SSFYRLRFELR [Peptide C11] 1130 counts/minute

Data origin, for the record: patent US20040092720A1
